- Tested on: Rattus norvegicus
- assayProcedure: Antiinflammatory activity in Wistar albino rat assessed as inhibition of carrageenan-induced paw oedema at 100 mg/kg, po measured 2 hrs after carrageenan challenge
- Type: functional
In this section we review reported inhibition in vivo at 100 mg/kg values for a set of compounds.

{"columns": ["compound", "inhibition in vivo at 100 mg/kg (%)"],
 "data": [
  ["Cc1ccc2c(Cc3nn4c(CN5CCOCC5)c(-c5ccc(Cl)cc5)nc4s3)coc2c1", 28.9],
  ["Cc1ccc2c(Cc3nn4c(CO)c(-c5ccc(Cl)cc5)nc4s3)coc2c1", 28.9],
  ["Cc1ccc2c(Cc3nn4c(C=O)c(-c5ccc(Cl)cc5)nc4s3)coc2c1", 24.3],
  ["Cc1ccc2c(Cc3nn4cc(-c5ccc(Br)cc5)nc4s3)coc2c1", 12],
  ["Cc1ccc2c(Cc3nn4cc(-c5ccc(Cl)cc5)nc4s3)coc2c1", 42.1],
  ["Cc1ccc2c(Cc3nn4cc(-c5ccc([N+](=O)[O-])cc5)nc4s3)coc2c1", 24.3],
  ["Cc1ccc2c(Cc3nn4c(CN5CCOCC5)c(-c5ccc(Br)cc5)nc4s3)coc2c1", 31.7],
  ["CC(C)Cc1ccc(C(C)C(=O)O)cc1 (stereo not given) [IBUPROFEN]", 42.9],
  ["Cc1ccc2c(Cc3nn4c(C#N)c(-c5ccc(Cl)cc5)nc4s3)coc2c1", 28],
  ["Cc1ccc2c(Cc3nn4c(CN5CCOCC5)c(-c5ccc([N+](=O)[O-])cc5)nc4s3)coc2c1", 24.3]
]}
